assay: Cmax in Sprague-Dawley rat at 10 mg/kg, po administered with 50% PEG400 containing 2.5% of Vitamin E-TPGS; type: ADME, organism-based; set-up: dose 10 mg/kg, route oral; conditions: in vivo
value kind: Cmax (nM)
Give just the numeric value; nM need not be written.

Measured Cmax of "COc1ccc2c(O[C@@H]3C[C@H]4C(=O)N[C@]5(C(=O)NS(=O)(=O)C6(C)CC6)C[C@H]5/C=C\CCCCCC(=O)N4C3)cc(-c3nc(C(C)C)cs3)nc2c1C" : 930

###

assay: Metabolic stability in rat bile assessed as unchanged drug level at 1 mg/kg, iv after 1 hr; assay type: ADME, organism-based; design: dose 1 mg/kg, route intravenous; settings: read-out: Stability
value kind: remaining at 1 h (%)
Output spec: scalar in %, unitless text.

remaining at 1 h measured on "COc1ccc2c(O[C@@H]3C[C@H]4C(=O)N[C@]5(C(=O)NS(=O)(=O)C6CC6)C[C@H]5/C=C\CCCCN(C)C(=O)[C@@H]4C3)cc(-c3ccccc3)nc2c1" = 95

###

assay: AUC in Sprague-Dawley rat at 10 mg/kg, po administered with 50% PEG400 containing 2.5% of Vitamin E-TPGS; type: ADME, organism-based; parameters: dose 10 mg/kg, route oral; conditions: plasma
value kind: AUC (µM·h)
Give the quantity in µM·h, number only.

Quick note, AUC for "COc1ccc2c(O[C@@H]3C[C@H]4C(=O)N[C@]5(C(=O)NS(=O)(=O)C6(C)CC6)C[C@H]5/C=C\CCCCCNC(=O)N4C3)cc(-c3nc(C(C)C)cs3)nc2c1" landed at 6

###

assay: Protein binding in plasma (unknown origin); format: ADME, cell-free; conditions: read-out: PPB
value kind: fraction unbound

Value of measured fraction unbound for the entry "COc1ccc2c(O[C@@H]3C[C@H]4C(=O)N[C@]5(C(=O)NS(=O)(=O)C6CC6)C[C@H]5/C=C\CCCCN(C)C(=O)[C@@H]4C3)cc(-c3nc(C(C)C)cs3)nc2c1C" : < 0.01

###

Catalogue of compounds with associated Papp A→B
experiment: Apparent permeability of the compound from apical to basolateral side of human Caco2 cells; format: ADME, cell-based; conditions: Caco-2
Field: value (include unit after the number)

Example results:
COc1ccc2c(O[C@@H]3C[C@H]4C(=O)N[C@]5(C(=O)NS(=O)(=O)C6(C)CC6)C[C@H]5/C=C\CCCCCC(=O)N4C3)cc(-c3nc(C(C)C)cs3)nc2c1C    11.1 ×10⁻⁶ cm/s
COc1ccc2c(O[C@@H]3C[C@H]4C(=O)N[C@]5(C(=O)NS(=O)(=O)C6CC6)C[C@H]5/C=C\CCCCN(C)C(=O)N4C3)nc(-c3ccccc3)nc2c1C    26 ×10⁻⁶ cm/s

Field Papp A→B (entry "COc1ccc(-c2nc(O[C@@H]3C[C@H]4C(=O)N[C@]5(C(=O)NS(=O)(=O)C6CC6)C[C@H]5/C=C\CCCCN(C)C(=O)N4C3)c3ccc(OC)c(C)c3n2)cc1" ) reads 33 ×10⁻⁶ cm/s

Item: "CCc1cnc(-c2ccc(C)cc2NC(=O)O[C@@H]2C[C@H]3C(=O)N[C@]4(C(=O)NS(=O)(=O)C5CC5)C[C@H]4/C=C\CCCCN(C)C(=O)[C@@H]3C2)s1" | Papp A→B: 15 ×10⁻⁶ cm/s
